The molecules below have reported IC50 for MMP-8 of the mouse (Mus musculus).
Lab book: enter the figure in nM, no units written.

These recorded examples may help you get a feel for the data.
molecule | experimental system | readout name | data value
O=C(O)[C@H]1[C@H](Cn2nnc3ccccc3c2=O)CC[C@@H]1C(=O)c1ccc(-c2ccc(Cl)cc2)cc1 (racemic) | MMP-8 of the mouse (Mus musculus) | IC50 | 1.1
CCCCCOc1ccc(C(=O)CC(CCn2nnc3ccccc3c2=O)C(=O)O)cc1 (single isomer, unassigned; enantiomer 1) [Comparative Example B-2] | MMP-8 of the mouse (Mus musculus) | IC50 | 1080
CCCCCOc1ccc(C(=O)CC(CCn2nnc3ccccc3c2=O)C(=O)O)cc1 (racemic) [Comparative Example B-1] | MMP-8 of the mouse (Mus musculus) | IC50 | 2300

As a next step, examine the molecule that follows.
Reported MMP-8 of the mouse (Mus musculus) IC50 for item O=C(O)[C@H]1[C@H](Cn2nnc3ccccc3c2=O)CC[C@@H]1C(=O)c1ccc(OCc2ccccc2)cc1 was 34.5

###

experimental system: MMP-16 (Homo sapiens)
readout name: IC50 (nM)
Lab book: enter the figure in nM, no units written.

compound | IC50 (nM)
O=C(O)[C@H]1[C@H](Cn2nnc3ccccc3c2=O)CC[C@@H]1C(=O)c1ccc(-c2ccc(Cl)cc2)cc1 (racemic) | 16
O=C(O)[C@H]1[C@H](Cn2nnc3ccccc3c2=O)CC[C@@H]1C(=O)c1ccc(OCc2ccccc2)cc1 (racemic) | 130
O=C(O)[C@@H]1[C@@H](Cn2nnc3ccccc3c2=O)CC[C@H]1C(=O)c1ccc(-c2ccc(Cl)cc2)cc1 (single isomer, unassigned; enantiomer 2) | 5.2
CCCCCOc1ccc(C(=O)CC(CCn2nnc3ccccc3c2=O)C(=O)O)cc1 (single isomer, unassigned; enantiomer 1) [Comparative Example B-2] | 6700

As a next step, examine the compound that follows.
Reported MMP-16 (Homo sapiens) IC50 for item CCCCCOc1ccc(C(=O)CC(CCn2nnc3ccccc3c2=O)C(=O)O)cc1 (racemic) [Comparative Example B-1] was 22000

###

Reported pIC50 values follow for various compounds
experimental system: MMP-12 of the rat (Rattus norvegicus)
Sequence (Q63341 96-277): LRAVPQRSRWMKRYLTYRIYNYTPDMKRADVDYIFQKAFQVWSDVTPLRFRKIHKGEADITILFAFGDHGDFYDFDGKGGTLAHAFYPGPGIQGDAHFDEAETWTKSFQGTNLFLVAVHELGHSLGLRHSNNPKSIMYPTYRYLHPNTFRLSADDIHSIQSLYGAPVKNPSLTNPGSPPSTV
pIC50: −log10 of the molar value.

These recorded examples may help you get a feel for the data.
compound | pIC50
CCCCCOc1ccc(C(=O)CC(CCn2nnc3ccccc3c2=O)C(=O)O)cc1 (single isomer, unassigned; enantiomer 1) [Comparative Example B-2] | 7.61
O=C(O)[C@H]1[C@H](Cn2nnc3ccccc3c2=O)CC[C@@H]1C(=O)c1ccc(OCc2ccccc2)cc1 [Example 2] | > 9.21
CCCCCOc1ccc(C(=O)CC(CCn2nnc3ccccc3c2=O)C(=O)O)cc1 (racemic) [Comparative Example B-1] | 7.53
O=C(O)[C@@H]1[C@@H](Cn2nnc3ccccc3c2=O)CC[C@H]1C(=O)c1ccc(-c2ccc(Cl)cc2)cc1 (single isomer, unassigned; enantiomer 2) [Comparative Example A-3] | > 9.21
O=C(O)[C@H]1[C@H](Cn2nnc3ccccc3c2=O)CC[C@@H]1C(=O)c1ccc(-c2ccc(Cl)cc2)cc1 (racemic) [Comparative Example A-1] | > 9.21

As a next step, examine the compound that follows.
According to the records, this compound O=C(O)[C@H]1[C@H](Cn2nnc3ccccc3c2=O)CC[C@@H]1C(=O)c1ccc(OCc2ccccc2)cc1 (racemic) [Example 1] displays pIC50 of > 9.00

###

The compounds below have reported IC50 for UniProt:P22894.
Sequence (P22894 101-467): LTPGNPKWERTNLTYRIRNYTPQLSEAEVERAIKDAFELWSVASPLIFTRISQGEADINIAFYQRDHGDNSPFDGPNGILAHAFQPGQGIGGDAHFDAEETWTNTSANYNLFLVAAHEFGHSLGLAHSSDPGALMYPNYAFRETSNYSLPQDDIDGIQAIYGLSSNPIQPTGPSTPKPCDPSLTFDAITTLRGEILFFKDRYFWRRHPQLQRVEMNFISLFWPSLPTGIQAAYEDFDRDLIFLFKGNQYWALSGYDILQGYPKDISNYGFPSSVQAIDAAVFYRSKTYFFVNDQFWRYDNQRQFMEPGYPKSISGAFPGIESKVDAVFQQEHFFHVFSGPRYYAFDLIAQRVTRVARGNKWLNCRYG
Lab book: enter the figure in nM, no units written.

According to the records, this compound O=C(O)[C@H]1[C@H](Cn2nnc3ccccc3c2=O)CC[C@@H]1C(=O)c1ccc(OCc2ccccc2)cc1 displays IC50 of 10.1

According to the records, this compound CCCCCOc1ccc(C(=O)CC(CCn2nnc3ccccc3c2=O)C(=O)O)cc1 (single isomer, unassigned; enantiomer 1) [Comparative Example B-2] displays IC50 of 275

According to the records, this compound CCCCCOc1ccc(C(=O)CC(CCn2nnc3ccccc3c2=O)C(=O)O)cc1 (racemic) [Comparative Example B-1] displays IC50 of 706

###

The molecules below have reported pIC50 for MMP-8 of the rat (Rattus norvegicus).
The read-out pIC50 is expressed as -log10 of concentration in moles per litre.

These recorded examples may help you get a feel for the data.
molecule | experimental system | pIC50
CCCCCOc1ccc(C(=O)CC(CCn2nnc3ccccc3c2=O)C(=O)O)cc1 (single isomer, unassigned; enantiomer 1) [Comparative Example B-2] | MMP-8 of the rat (Rattus norvegicus) | 5.98
O=C(O)[C@H]1[C@H](Cn2nnc3ccccc3c2=O)CC[C@@H]1C(=O)c1ccc(-c2ccc(Cl)cc2)cc1 (racemic) [Comparative Example A-1] | MMP-8 of the rat (Rattus norvegicus) | 8.85
O=C(O)[C@H]1[C@H](Cn2nnc3ccccc3c2=O)CC[C@@H]1C(=O)c1ccc(OCc2ccccc2)cc1 [Example 2] | MMP-8 of the rat (Rattus norvegicus) | 7.41
CCCCCOc1ccc(C(=O)CC(CCn2nnc3ccccc3c2=O)C(=O)O)cc1 (racemic) [Comparative Example B-1] | MMP-8 of the rat (Rattus norvegicus) | 5.46

As a next step, examine the molecule that follows.
According to the records, this molecule O=C(O)[C@@H]1[C@@H](Cn2nnc3ccccc3c2=O)CC[C@H]1C(=O)c1ccc(-c2ccc(Cl)cc2)cc1 (single isomer, unassigned; enantiomer 2) [Comparative Example A-3] displays pIC50 of 8.85

###

The molecules below have reported IC50 for MMP-1 (Homo sapiens, UniProt P03956).
Lab book: enter the figure in nM, no units written.

molecule | units | data value
O=C(O)[C@@H]1[C@@H](Cn2nnc3ccccc3c2=O)CC[C@H]1C(=O)c1ccc(-c2ccc(Cl)cc2)cc1 (single isomer, unassigned; enantiomer 2) | nM | 135

As a next step, examine the molecule that follows.
Reported MMP-1 (Homo sapiens, UniProt P03956) IC50 for item O=C(O)[C@H]1[C@H](Cn2nnc3ccccc3c2=O)CC[C@@H]1C(=O)c1ccc(-c2ccc(Cl)cc2)cc1 (racemic) was 220

###

The molecules below have reported IC50 for MMP-2 of the mouse (Mus musculus, UniProt P33434).
Lab book: enter the figure in nM, no units written.

These recorded examples may help you get a feel for the data.
molecule | IC50, nM
CCCCCOc1ccc(C(=O)CC(CCn2nnc3ccccc3c2=O)C(=O)O)cc1 (single isomer, unassigned; enantiomer 1) [Comparative Example B-2] | 145
CCCCCOc1ccc(C(=O)CC(CCn2nnc3ccccc3c2=O)C(=O)O)cc1 (racemic) [Comparative Example B-1] | 610

Reported MMP-2 of the mouse (Mus musculus, UniProt P33434) IC50 for item O=C(O)[C@H]1[C@H](Cn2nnc3ccccc3c2=O)CC[C@@H]1C(=O)c1ccc(-c2ccc(Cl)cc2)cc1 (racemic) [Comparative Example A-1] was 1.3

###

The molecules below have reported pIC50 for MMP-14 (Homo sapiens, UniProt P50281).
The read-out pIC50 is expressed as -log10 of concentration in moles per litre.

These recorded examples may help you get a feel for the data.
molecule | experimental system | data value
CCCCCOc1ccc(C(=O)CC(CCn2nnc3ccccc3c2=O)C(=O)O)cc1 (racemic) [Comparative Example B-1] | MMP-14 (Homo sapiens, UniProt P50281) | 5.42
O=C(O)[C@@H]1[C@@H](Cn2nnc3ccccc3c2=O)CC[C@H]1C(=O)c1ccc(-c2ccc(Cl)cc2)cc1 (single isomer, unassigned; enantiomer 2) [Comparative Example A-3] | MMP-14 (Homo sapiens, UniProt P50281) | 8.92
O=C(O)[C@H]1[C@H](Cn2nnc3ccccc3c2=O)CC[C@@H]1C(=O)c1ccc(-c2ccc(Cl)cc2)cc1 (racemic) [Comparative Example A-1] | MMP-14 (Homo sapiens, UniProt P50281) | 8.54

As a next step, examine the molecule that follows.
Reported MMP-14 (Homo sapiens, UniProt P50281) pIC50 for item CCCCCOc1ccc(C(=O)CC(CCn2nnc3ccccc3c2=O)C(=O)O)cc1 (single isomer, unassigned; enantiomer 1) [Comparative Example B-2] was 5.89

###

assay name: Pharmacokinetic investigations in vivo, dog
run conditions: plasma, po; Dog (Beagle), p.o.; read-out: t1/2 p.o. (converted)
readout name: half-life (h)
Lab book: enter the figure in h, no units written.

According to the records, this compound O=C(O)[C@H]1[C@H](Cn2nnc3ccccc3c2=O)CC[C@@H]1C(=O)c1ccc(OCc2ccccc2)cc1 displays half-life of 14.4

###

The compounds below have reported IC50 for MMP-9 (Homo sapiens, UniProt P14780).
Output should be the measured figure followed by the unit it is expressed in.

compound | experimental system | data value
O=C(O)[C@@H]1[C@@H](Cn2nnc3ccccc3c2=O)CC[C@H]1C(=O)c1ccc(-c2ccc(Cl)cc2)cc1 (single isomer, unassigned; enantiomer 2) | MMP-9 (Homo sapiens, UniProt P14780) | 1.1 nM
CCCCCOc1ccc(C(=O)CC(CCn2nnc3ccccc3c2=O)C(=O)O)cc1 (single isomer, unassigned; enantiomer 1) [Comparative Example B-2] | MMP-9 (Homo sapiens, UniProt P14780) | 625 nM
CCCCCOc1ccc(C(=O)CC(CCn2nnc3ccccc3c2=O)C(=O)O)cc1 (racemic) [Comparative Example B-1] | MMP-9 (Homo sapiens, UniProt P14780) | 1400 nM

According to the records, this compound O=C(O)[C@H]1[C@H](Cn2nnc3ccccc3c2=O)CC[C@@H]1C(=O)c1ccc(-c2ccc(Cl)cc2)cc1 (racemic) displays IC50 of 1.9 nM
